assay: Modulation of gamma secretase in CHO-2B7 cells assessed as reduction in amyloid beta 42 level after 5 hrs by MSD ELISA; assay type: cell-based; details: Cricetulus griseus, CHO-2B7, 5 h
READOUT LABEL: pIC50
Interpret pIC50 as the negative base-10 log of the concentration measured in mol/L.

{"SMILES STRUCTURE": "CC(C)CC(=O)N1CCO[C@@H](O[C@H]2CC[C@]34C[C@]35CC[C@]3(C)[C@@H]6[C@H](O[C@@H]([C@H](OC(=O)N7CCC7)C(C)C)C[C@H]6C)[C@H](O)[C@@]3(C)[C@@H]5CC[C@H]4C2(C)C)C1", "pIC50": 5.89}

Value of measured pIC50 for the entry CC(C)[C@@H](OC(=O)N(C)C)[C@H]1C[C@@H](C)[C@H]2[C@H](O1)[C@H](O)[C@@]1(C)[C@@H]3CC[C@H]4C(C)(C)[C@@H](OC(=O)NC5CNC5)CC[C@@]45C[C@@]35CC[C@]21C : 6.52

Value of measured pIC50 for the entry CC(C)C(=O)N1CCO[C@@H](O[C@H]2CC[C@]34C[C@]35CC[C@]3(C)[C@@H]6[C@H](O[C@@H]([C@H](OC(=O)N7CCC7)C(C)C)C[C@H]6C)[C@H](O)[C@@]3(C)[C@@H]5CC[C@H]4C2(C)C)C1 : 6.40

Value of measured pIC50 for the entry C[C@@H]1C[C@H](COC(N)=O)O[C@H]2[C@H]1[C@@]1(C)CC[C@@]34C[C@@]35CC[C@H](O[C@H]3CN(C(=O)CC6CC6)CCO3)C(C)(C)[C@@H]5CC[C@H]4[C@]1(C)[C@H]2O : 6.08

FYI, the data here is from ChEMBL document CHEMBL2203235.
